target: DRB1*1101 (Homo sapiens, UniProt P01903+P01911, A100R/A169T/A87E/I96F/K41T/L162R/M171V/P40S/Q125H/Q178H/Q39Y/Q99D/R42S/S66Y/T262R/V115G/W38E); test: HLA class II peptide-binding assay (competitive ELISA); conditions: immunopurified HLA, reference peptide IC50 50 nM, ratio ≤20 high affinity, 20–200 moderate affinity
measured endpoint: relative binding ratio (IC50 of the test peptide divided by IC50 of the reference peptide)
Enter the number alone.

Here are 5 sequences together with their reported answers.
[
  {
    "residue sequence": "GQRVVFIQPSPVRDHY [pC5, Can f 1 peptide p81–96]",
    "data value": 179
  },
  {
    "residue sequence": "PGKYTAYEGQRVVFIQ [pC4, Can f 1 peptide p73–88]",
    "data value": 133
  },
  {
    "residue sequence": "LEAKITMLTNGQCQNIT [pC3, Can f 1 peptide p48–64]",
    "data value": 89
  },
  {
    "residue sequence": "KPVRGVKLVGRDPKNNL [pTL7, Tear lipocalin peptide p108–124]",
    "data value": 105
  },
  {
    "residue sequence": "LEAKVTMLISGRCQEVK [pTL3, Tear lipocalin peptide p49–65]",
    "data value": 5
  }
]

# relative binding ratio (IC50 of the test peptide divided by IC50 of the reference peptide) of HYIFYCEGELHGKPVR [pTL6, Tear lipocalin peptide p96–111] = 3

# relative binding ratio (IC50 of the test peptide divided by IC50 of the reference peptide) of RQIRMAKLLGRDPEQSQ [pC7, Can f 1 peptide p107–123] = 92

# relative binding ratio (IC50 of the test peptide divided by IC50 of the reference peptide) of GKWYLKAMTADQEVPE [pC1, Can f 1 peptide p15–30] = 70
